- experimental.system: T1, cyno IL-12RB2 overexpressed on 293T cells (Example 2) (cyno, UniProt A0A2K5VNI7 24-860)
- T1 construct: whole, on cells
- T1 sequence: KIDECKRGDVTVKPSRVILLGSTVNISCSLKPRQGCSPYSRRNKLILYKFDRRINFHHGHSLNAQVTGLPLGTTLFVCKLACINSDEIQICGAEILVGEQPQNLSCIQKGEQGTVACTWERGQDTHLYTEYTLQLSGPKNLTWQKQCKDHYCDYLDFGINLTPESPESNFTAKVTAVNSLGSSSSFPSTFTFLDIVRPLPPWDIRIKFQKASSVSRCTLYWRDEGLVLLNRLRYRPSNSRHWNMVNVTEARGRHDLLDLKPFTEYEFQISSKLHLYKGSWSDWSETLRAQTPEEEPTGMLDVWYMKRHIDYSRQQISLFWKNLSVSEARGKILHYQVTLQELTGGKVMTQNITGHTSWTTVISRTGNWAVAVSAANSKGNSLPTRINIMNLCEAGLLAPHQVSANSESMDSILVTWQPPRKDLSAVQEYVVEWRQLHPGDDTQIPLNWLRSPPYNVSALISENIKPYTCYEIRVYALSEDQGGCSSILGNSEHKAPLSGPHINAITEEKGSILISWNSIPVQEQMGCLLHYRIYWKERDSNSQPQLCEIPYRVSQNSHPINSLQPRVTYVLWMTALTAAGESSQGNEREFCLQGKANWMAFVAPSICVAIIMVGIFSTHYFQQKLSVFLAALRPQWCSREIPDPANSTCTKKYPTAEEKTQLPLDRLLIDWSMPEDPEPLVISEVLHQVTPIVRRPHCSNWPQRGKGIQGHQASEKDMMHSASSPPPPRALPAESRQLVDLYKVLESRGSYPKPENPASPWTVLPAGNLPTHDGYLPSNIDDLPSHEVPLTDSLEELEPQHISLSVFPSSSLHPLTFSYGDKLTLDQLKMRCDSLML
- assay.explanation: FACS, hybridoma supernatant, 293T
recorded.metric: Fold over parental 293T (fold)

- 85802_06F06 (antibody, V domains shown, also called 85802_06F06A) VH: QVQLQESGPGLVKPSETLSLTCTVSGGSISSYYWSWIRQPPGKGLEWFGYIYDSGSTNYNPSLKSRVTISVDTSKNQFSLKLSSVTAADTAVYYCARGSYFWYFDLWGRGTLVTVSS VL: SYELTQPPSVSVSPGQTASITCSGDKLGAKYASWYHQKPGQSPVLVIYQDTKRPSGIPERFSGSNSGNTATLTISGTQAMDEADYYCQAWDSSTVVFGGGTKLTVL: 14
